Tested on: Nephotettix cincticeps
experimental-details: Insecticidal activity against 1 to 3 day-old adult Nephotettix cincticeps (green rice leafhopper) infested in compound-treated rice seedlings assessed as mortality measured after 3 days
Assay type: functional
measured-parameter: LC70 (ppm)
// units = ppm; emit number, no label

// below: answered molecules
1) CN/C(=C\[N+](=O)[O-])NCC1CCOC1 (racemic)    0.1
2) CC(=O)N(C)/C(=N\[N+](=O)[O-])N(CC1CCOC1)C(C)=O (racemic)    0.1
3) CN(C)/C(=N\[N+](=O)[O-])N(C)CC1CCOC1 (racemic)    10
4) O=[N+]([O-])/C=C1\NCCN1CC1CCOC1 (racemic)    0.1
5) COC(=O)N(CC1CCOC1)/C(=N/[N+](=O)[O-])N(C)C(C)=O (racemic)    0.1
6) CN(C)/C(=C\[N+](=O)[O-])NCC1CCOC1 (racemic)    1

Alright, here's another molecule for you.
Lab note: CCN(CC1CCOC1)/C(=C/[N+](=O)[O-])NC (racemic) gave LC70 of 10

* * *

Tested on: Laodelphax striatellus
experimental-details: Insecticidal activity against 1 to 3 day-old adult Laodelphax striatella (small brown planthopper) infested compound-treated rice seedlings assessed as mortality measured after 3 days
Assay type: functional
measured-parameter: LC70

// below: answered compounds
1) CN(C(=O)c1ccccc1)/C(=N\[N+](=O)[O-])N(CC1CCOC1)C(=O)c1ccccc1 (racemic)    1 ppm
2) CN/C(=C\[N+](=O)[O-])NCC1CCOC1 (racemic)    0.1 ppm
3) O=[N+]([O-])/C=C1\NCCCN1CC1CCOC1 (racemic)    1 ppm

Lab note: CCN/C(=C\[N+](=O)[O-])NCC1CCOC1 (racemic) gave LC70 of 10 ppm

Lab note: CCN(C(C)=O)/C(=N\[N+](=O)[O-])N(CC1CCOC1)C(C)=O (racemic) gave LC70 of 10 ppm

Lab note: O=C(c1ccccc1)N1CCCN(CC2CCOC2)/C1=N\[N+](=O)[O-] (racemic) gave LC70 of 10 ppm

Lab note: CN1CCCN(CC2CCOC2)/C1=N/[N+](=O)[O-] (racemic) gave LC70 of 100 ppm

Lab note: COC(=O)N(CC1CCOC1)/C(=N/[N+](=O)[O-])N(C)C(C)=O (racemic) gave LC70 of 1 ppm

Lab note: CN1CCCN(CC2CCOC2)/C1=C/[N+](=O)[O-] (racemic) gave LC70 of 10 ppm

Lab note: CN(C)/C(=C\[N+](=O)[O-])N(C)CC1CCOC1 (racemic) gave LC70 of 1 ppm

Lab note: O=[N+]([O-])/N=C1\NCCN1CC1CCOC1 (racemic) gave LC70 of 10 ppm

Lab note: O=[N+]([O-])/N=C1\NCCCN1CC1CCOC1 (racemic) gave LC70 of 1 ppm

Lab note: CN(C)/C(=C\[N+](=O)[O-])NCC1CCOC1 (racemic) gave LC70 of 0.1 ppm

* * *

Test system: Nephotettix cincticeps
experimental-details: Insecticidal activity against 1 to 3 day-old adult Nephotettix cincticeps (green rice leafhopper) infested in compound-treated rice seedlings assessed as mortality measured after 3 days
Type: functional
measured-parameter: LC70 (ppm)
// units = ppm; emit number, no label

// below: answered molecules
1. CCN(CC1CCOC1)/C(=N/[N+](=O)[O-])NC (racemic)    10
2. N/C(=N\[N+](=O)[O-])NCC1CCOC1 (racemic)    100
3. CN/C(=C\[N+](=O)[O-])N(C)CC1CCOC1 (racemic)    1
4. CN1CCCN(CC2CCOC2)/C1=C/[N+](=O)[O-] (racemic)    10
5. CCN/C(=C\[N+](=O)[O-])NCC1CCOC1 (racemic)    10
6. CS/C(=N\[N+](=O)[O-])NCC1CCOC1 (stereo unspecified)    10

Lab note: CCN(C)/C(=N\[N+](=O)[O-])NCC1CCOC1 (racemic) gave LC70 of 10

Lab note: COC(=O)N(C)/C(=N\[N+](=O)[O-])N(CC1CCOC1)C(=O)OC (racemic) gave LC70 of 0.1

Lab note: COC(=O)N/C(=N\[N+](=O)[O-])NCC1CCOC1 (racemic) gave LC70 of 10

Lab note: O=C(c1ccccc1)N1CCCN(CC2CCOC2)/C1=N\[N+](=O)[O-] (racemic) gave LC70 of 0.1

Lab note: O=[N+]([O-])/C=C1\NCCCCN1CC1CCOC1 (racemic) gave LC70 of 1

Lab note: CN(C)/C(=C\[N+](=O)[O-])N(C)CC1CCOC1 (racemic) gave LC70 of 10

* * *

Tested on: Laodelphax striatellus
experimental-details: Insecticidal activity against 1 to 3 day-old adult Laodelphax striatella (small brown planthopper) infested compound-treated rice seedlings assessed as mortality measured after 3 days
Format: functional
# maps each entry to its LC70

1. COC(=O)N(CC1CCOC1)/C(=N/[N+](=O)[O-])N(C)Cc1ccccc1 (racemic)    1 ppm

Lab note: COC(=O)N/C(=N\[N+](=O)[O-])NCC1CCOC1 (racemic) gave LC70 of >1000 ppm

Lab note: CC(=O)N(C)/C(=N\[N+](=O)[O-])N(CC1CCOC1)C(C)=O (racemic) gave LC70 of 0.1 ppm

Lab note: O=[N+]([O-])/N=C(\NCc1ccccc1)NCC1CCOC1 (racemic) gave LC70 of >1000 ppm

Lab note: CN(C)/C(=N\[N+](=O)[O-])NCC1CCOC1 (racemic) gave LC70 of 1 ppm

Lab note: C#CCN/C(=C\[N+](=O)[O-])NCC1CCOC1 (racemic) gave LC70 of >1000 ppm

Lab note: CN(Cc1ccccc1)/C(=N\[N+](=O)[O-])N(Cc1ccccc1)CC1CCOC1 (racemic) gave LC70 of 10 ppm

* * *

Tested on: Nephotettix cincticeps
experimental-details: Insecticidal activity against 1 to 3 day-old adult Nephotettix cincticeps (green rice leafhopper) infested in compound-treated rice seedlings assessed as mortality measured after 3 days
Assay type: functional
# maps each entry to its LC70

// below: answered compounds
1) CN(C(=O)c1ccccc1)/C(=N\[N+](=O)[O-])N(CC1CCOC1)C(=O)c1ccccc1 (racemic)    0.1 ppm
2) O=[N+]([O-])/N=C1\NCCCCN1CC1CCOC1 (racemic)    10 ppm
3) CC(=O)N1CCCN(CC2CCOC2)/C1=N\[N+](=O)[O-] (racemic)    0.1 ppm
4) CN(C)/C(=N\[N+](=O)[O-])NCC1CCOC1 (racemic)    0.1 ppm

Alright, here's another compound for you.
LC70 for Nephotettix cincticeps with input CS/C(=C\[N+](=O)[O-])N(C)CC1CCOC1 (racemic) equals >1000 ppm

* * *

Test system: Nephotettix cincticeps
experimental-details: Insecticidal activity against 1 to 3 day-old adult Nephotettix cincticeps (green rice leafhopper) infested in compound-treated rice seedlings assessed as mortality measured after 3 days
Format: functional
measured-parameter: LC70

1) CCN/C(=N\[N+](=O)[O-])NCC1CCOC1 (racemic)    10 ppm
2) O=[N+]([O-])/N=C1\NCCCN1CC1CCOC1 (racemic)    0.1 ppm
3) O=[N+]([O-])/N=C(\NCc1ccccc1)NCC1CCOC1 (racemic)    >1000 ppm
4) COC(=O)N(CC1CCOC1)/C(=N/[N+](=O)[O-])N(C)Cc1ccccc1 (racemic)    0.1 ppm
5) CN1CCCN(CC2CCOC2)/C1=N/[N+](=O)[O-] (racemic)    10 ppm
6) CN(Cc1ccccc1)/C(=N\[N+](=O)[O-])N(Cc1ccccc1)CC1CCOC1 (racemic)    10 ppm

Alright, here's another molecule for you.
Lab note: O=[N+]([O-])/N=C1\NCCN1CC1CCOC1 (racemic) gave LC70 of 1 ppm

* * *

System: Laodelphax striatellus
experimental-details: Insecticidal activity against 1 to 3 day-old adult Laodelphax striatella (small brown planthopper) infested compound-treated rice seedlings assessed as mortality measured after 3 days
Format: functional
# maps each entry to its LC70
// units = ppm; emit number, no label

// below: answered compounds
1) O=[N+]([O-])/N=C1\NCCCCN1CC1CCOC1 (racemic)    100
2) CCN(C)/C(=N\[N+](=O)[O-])NCC1CCOC1 (racemic)    10
3) O=[N+]([O-])/C=C1\NCCCCN1CC1CCOC1 (racemic)    10
4) CS/C(=N\[N+](=O)[O-])NCC1CCOC1 (stereo not drawn)    10

Alright, here's another compound for you.
Lab note: COC(=O)N(C)/C(=N\[N+](=O)[O-])N(CC1CCOC1)C(=O)OC (racemic) gave LC70 of 1

* * *

Test system: Laodelphax striatellus
experimental-details: Insecticidal activity against 1 to 3 day-old adult Laodelphax striatella (small brown planthopper) infested compound-treated rice seedlings assessed as mortality measured after 3 days
Format: functional
# maps each entry to its LC70
// units = ppm; emit number, no label

// below: answered compounds
1. O=[N+]([O-])/C=C1\NCCN1CC1CCOC1 (racemic)    10
2. CN/C(=C\[N+](=O)[O-])N(C)CC1CCOC1 (racemic)    1
3. CCCN/C(=C\[N+](=O)[O-])NCC1CCOC1 (racemic)    100
4. CN/C(=N/CC1CCOC1)N[N+](=O)[O-] (centres undefined) [DINOTEFURAN]    0.1

Lab note: CC(=O)N1CCCN(CC2CCOC2)/C1=N\[N+](=O)[O-] (racemic) gave LC70 of 10

Lab note: CN/C(=N\[N+](=O)[O-])N(C)CC1CCOC1 (racemic) gave LC70 of 1

Lab note: CN(C)/C(=N\[N+](=O)[O-])N(C)CC1CCOC1 (racemic) gave LC70 of 10

Lab note: CCN(CC1CCOC1)/C(=C/[N+](=O)[O-])NC (racemic) gave LC70 of 1

Lab note: CCCN(CC1CCOC1)/C(=C/[N+](=O)[O-])NC (racemic) gave LC70 of 10

Lab note: CCN(CC1CCOC1)/C(=N/[N+](=O)[O-])NC (racemic) gave LC70 of 10

Lab note: CCN/C(=N\[N+](=O)[O-])NCC1CCOC1 (racemic) gave LC70 of 100
